target: MRGPRX2 (Homo sapiens, UniProt Q96LB1); experiment: MRGPRX2 IP1 HTRF assay; type: cell-based; parameters: host or cells: CHO-K1; details: CHO-K1 cells stably expressing human MRGPRX2; agonist Cortistatin 14 1 μM; IP1 accumulation
Sequence (Q96LB1 whole entry): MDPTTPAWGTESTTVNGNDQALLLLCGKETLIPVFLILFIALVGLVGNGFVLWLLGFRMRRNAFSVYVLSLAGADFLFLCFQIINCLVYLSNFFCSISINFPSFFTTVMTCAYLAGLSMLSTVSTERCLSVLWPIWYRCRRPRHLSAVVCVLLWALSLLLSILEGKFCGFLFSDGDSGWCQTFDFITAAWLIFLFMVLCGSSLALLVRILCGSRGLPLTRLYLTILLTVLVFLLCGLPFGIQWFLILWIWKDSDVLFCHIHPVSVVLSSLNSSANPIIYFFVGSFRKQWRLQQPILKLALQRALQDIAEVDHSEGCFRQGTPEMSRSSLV
parameter.measured: IC50

// worked examples, IC50 included
smi	IC50
Cc1cc2nc(C(F)(F)F)cc(N[C@H]3CCC[C@@H](Nc4nccc5ncccc45)C3)n2n1	0.1 to 1 µM
Cn1cnc2ccnc(N[C@H]3CC[C@@H](Nc4cccc5nc(C(F)(F)F)cn45)CC3)c21	0.1 to 1 µM
Cn1cnc2ccnc(N[C@@H]3CCC[C@H](Nc4cc(C(F)(F)F)nc5cc(Br)nn45)C3)c21	0.1 to 1 µM
FC(F)(F)c1cc(N[C@H]2CCC[C@@H](Nc3nccn4nccc34)C2)n2nc(Br)cc2n1	0.1 to 1 µM
FC(F)(F)c1cn2c(N[C@H]3CC[C@@H](Nc4nccn5cncc45)CC3)cccc2n1	0.0001 to 0.1 µM
FC(F)(F)c1cc(N[C@H]2CCC[C@@H](Nc3nccn4cncc34)C2)n2nc(Br)cc2n1	0.1 to 1 µM

Hi! What's the reported IC50 for FC(F)(F)c1cn2c(N[C@H]3CCC[C@@H](Nc4nccc5ncccc45)C3)cccc2n1 on MRGPRX2 (Homo sapiens, UniProt Q96LB1)? 0.0001 to 0.1 µM

Further, for Cn1cnc2ccnc(N[C@@H]3CCC[C@H](Nc4cccc5nc(C(F)(F)F)cn45)C3)c21 ? 0.1 to 1 µM

Further, for FC(F)(F)c1cc(N[C@H]2CCC[C@@H](Nc3nccc4ncccc34)C2)n2nc(C(F)(F)F)cc2n1 ? 0.0001 to 0.1 µM

Further, for FC(F)(F)c1cc(N[C@H]2CCC[C@@H](Nc3nccc4ncccc34)C2)n2nc(Br)cc2n1 ? 0.0001 to 0.1 µM

Further, for FC(F)(F)c1cc(N[C@H]2CCC[C@@H](Nc3nccc4nccn34)C2)n2nc(C(F)(F)F)cc2n1 ? 0.0001 to 0.1 µM

Further, for Cn1cnc2ccnc(N[C@@H]3CCC[C@H](Nc4cc(C(F)(F)F)nc5cc(C(F)(F)F)nn45)C3)c21 ? 0.1 to 1 µM

Further, for FC(F)(F)c1cc(N[C@H]2CCC[C@@H](Nc3nccn4cncc34)C2)n2nc(C(F)(F)F)cc2n1 ? 0.1 to 1 µM

Further, for FC(F)(F)c1cn2c(N[C@H]3CCC[C@@H](Nc4nccn5cncc45)C3)cccc2n1 ? 0.1 to 1 µM

Further, for FC(F)(F)c1cc(N[C@H]2CCC[C@@H](Nc3nccc4nccn34)C2)n2nc(Br)cc2n1 ? 0.1 to 1 µM

Further, for FC(F)(F)c1cc(N[C@H]2CCC[C@@H](Nc3nnc4ccccn34)C2)n2nc(C(F)(F)F)cc2n1 ? 0.1 to 1 µM

Further, for FC(F)(F)c1cc(N[C@H]2CCC[C@@H](Nc3nnc4ccccn34)C2)n2nc(Br)cc2n1 ? 0.1 to 1 µM
